- SUBJECT OF TEST: purified HLA DRB1*1302 (Homo sapiens, UniProt P01903+P01911, A100E/A169T/K41T/L162R/M171V/P40S/Q125H/Q178H/Q39Y/Q99D/R42S/S66N/T262R/V115G/W38E/Y61H)
- Construct: MHC molecules utilized were purified from EBV transformed homozygous cell lines or single MHC allele transfected 721.221, C1R, or fibroblast lines; made in house; host or cells: EBV transformed homozygous cell lines or single MHC allele transfected 721.221, C1R, or fibroblast lines
- Sequence (P01903 26-254, other chains not shown): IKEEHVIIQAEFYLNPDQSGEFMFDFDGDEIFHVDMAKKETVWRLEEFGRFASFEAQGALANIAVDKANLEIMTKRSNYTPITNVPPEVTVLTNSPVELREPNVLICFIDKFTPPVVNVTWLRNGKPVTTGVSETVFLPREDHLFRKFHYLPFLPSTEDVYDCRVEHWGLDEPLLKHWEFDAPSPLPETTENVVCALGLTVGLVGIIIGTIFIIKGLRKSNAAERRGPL
- METHOD SUMMARY: HLA-DR radioligand binding inhibition assay, DRB1*1302
- CONDITION SET: column 6 of second part of Table I
Ends that are not written are not given here.
QUANTITY NAME: IC50

Exercise: So what's the measured IC50 for this one? KELAVFREKVTEQHR [Peptide 9019.0186]
Key: > 20 µM

Where do these numbers come from? They come from patent US10556943B2.
